- testedTarget: purified recombinant human PDE5 (Homo sapiens, UniProt O76074)
- test: In vitro PDE5 inhibition assay (GMP production from cGMP, LC-MS)
- statedConditions: purified recombinant human PDE5; cGMP at 1/10 of Km
pIC50: −log10 of the molar value.
measure: pIC50

COc1ccc(-c2oc3c(CC=C(C)C)c(O[C@@H]4O[C@H](CO)[C@@H](O)[C@H](O)[C@H]4O)cc(O)c3c(=O)c2O[C@@H]2O[C@@H](C)[C@H](O)[C@@H](O)[C@H]2O)cc1: 5.22

[1] COc1ccc(-c2oc3c(CC=C(C)C)c(O[C@@H]4O[C@H](CO)[C@@H](O)[C@H](O)[C@H]4O)cc(O)c3c(=O)c2OCCO)cc1
[2] COc1ccc(-c2oc3c(CC=C(C)C)c(O)cc(O)c3c(=O)c2O)cc1
[3] COc1ccc(-c2oc3c(CC=C(C)C)c(O[C@@H]4O[C@H](CO)[C@@H](O)[C@H](O)[C@H]4O)cc(O)c3c(=O)c2OCC(C)O)cc1 (stereo partly shown)
Task: Ascending sort, pIC50. The reply should contain the labels ordered as requested.
Result: 2, 3, 1

###

- testedTarget: purified recombinant human PDE5 (Homo sapiens, UniProt O76074)
- Construct: purchased Abcam AB125581
- test: In vitro PDE5 inhibition assay (GMP production from cGMP, LC-MS)
- Assay type: biochemical
- statedConditions: enzyme kinetics, purified recombinant human PDE5
measure: Ki (nM)
Note: unit nM is implicit; provide only the numeric part.

Task: Given the compound COc1ccc(-c2oc3c(CC=C(C)C)c(O[C@@H]4O[C@H](CO)[C@@H](O)[C@H](O)[C@H]4O)cc(O)c3c(=O)c2OCCO)cc1 , write its reported Ki.
Result: 36
